details: 288.15 K; 101.33 kPa; Liquid; Vibrating tube method
Can you tell me mass density for the items I'm about to list?
Give bare numbers, in kg/m3.

[
  {
    "compound": "CCCCCCCCCC(=O)OCC [ethyl decanoate]",
    "endpoint-unit": "kg/m3",
    "mass density": 868.4
  },
  {
    "compound": "CCCCCCCCCCCCCC(=O)OCC [ethyl tetradecanoate]",
    "endpoint-unit": "kg/m3",
    "mass density": 864.8
  },
  {
    "compound": "CCCCCCCC(=O)OC [methyl octanoate]",
    "endpoint-unit": "kg/m3",
    "mass density": 881.5
  },
  {
    "compound": "CCCCCCCCCC(=O)OC [methyl decanoate]",
    "endpoint-unit": "kg/m3",
    "mass density": 876.4
  },
  {
    "compound": "CCCCCCCCCCCC(=O)OC [methyl dodecanoate]",
    "endpoint-unit": "kg/m3",
    "mass density": 873.7
  },
  {
    "compound": "CCCCC/C=C\\C/C=C\\CCCCCCCC(=O)OC [methyl (Z,Z)-9,12-octadecadienate]",
    "endpoint-unit": "kg/m3",
    "mass density": 889.9
  },
  {
    "compound": "CCCCCCCC/C=C\\CCCCCCCC(=O)OC [methyl cis-9-octadecenoate]",
    "endpoint-unit": "kg/m3",
    "mass density": 877.7
  },
  {
    "compound": "CCCCCCCC/C=C\\CCCCCCCC(=O)OCC [ethyl (Z)-9-octadeceneoate]",
    "endpoint-unit": "kg/m3",
    "mass density": 873.2
  }
]

Here is another compound to look at.
QUERY: Fill in mass density for record CCCCCCCCCCCC(=O)OCC [ethyl dodecanoate]
RESULT: 866.4
